- Test system: ADP-induced aggregation in rabbit platelet
- TEST METHOD NOTES: Inhibition effect on ADP-induced aggregation in rabbit platelet
- Assay type: cell-based
- RUN PARAMETERS: Oryctolagus cuniculus, Platelet, 10^-4 M test compound solution; rabbit platelet (PRP)
This section presents molecules with their documented inhibition at 100 µM values.
Dear colleague, please return just the value in %, with no unit written.

Some solved entries appear below for comparison.
>>> df
                                   molecule  value_reported
0  CCOC(=O)C(C)Oc1ccc2c(c1)CCC(=O)N2C (stereo not drawn) [C]              36
1  CCOC(=O)C(C)Oc1cccc2c1NC(=O)CC2 (stereo not drawn) [Compound M]               3
2  CCOC(=O)C(C)Oc1ccc2[nH]c(=O)ccc2c1 (stereo not drawn) [B]              86

## Input Need inhibition at 100 µM, item CCOC(=O)CCCOc1ccc2c(c1)CCC(=O)N2 [E]
## Output 100

## Input Need inhibition at 100 µM, item CCOC(=O)C(C)Oc1ccc2c(c1)CCC(=O)N2 (stereo not drawn) [A]
## Output 57

## Input Need inhibition at 100 µM, item CCCCCOC(=O)C(C)Oc1ccc2c(c1)CCC(=O)N2 (stereo not drawn) [F]
## Output 100

## Input Need inhibition at 100 µM, item CCOC(=O)CCCCCCOc1ccc2c(c1)CCC(=O)N2 [K]
## Output 37

Hello, the source for this data is patent US4070470A, in case you need it.
